Biological target: Aryl hydrocarbon receptor (Homo sapiens)
Test: AHR activators, confirmation, cell-based, luminescence, luciferase reporter, human (AID 2845);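 further: HepG2 hepatoma cells carrying a DRE-driven firefly luciferase reporter; 0% = vehicle wells and 100% = reference agonist wells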
Conditions: human cells, AHR-responsive luciferase reporter, at 9 µM, active compounds read high
Among all 2,300 compounds or so, about 2,000 (87%) were called active. The set was probably picked from earlier hits. The list is a sample of the results.
The reader will find reported activation values listed item by item below.
endpoint name: activation

>>> result("O=C(Nn1c(-c2ccc(Cl)cc2)nc2ccccc2c1=O)c1cccnc1Cl")
"28.5% (inactive)"
>>> result("Cc1csc(NC(=S)Nc2cccc(Cl)c2)n1")
"98.7% (active)"
>>> result("CSc1ncccc1C(=O)Nc1nc2ccc(F)cc2s1")
"-8.12% (inactive)"

---

Target: Aryl hydrocarbon receptor (Homo sapiens) (UniProt P35869)
Sequence (P35869 whole entry, looked up): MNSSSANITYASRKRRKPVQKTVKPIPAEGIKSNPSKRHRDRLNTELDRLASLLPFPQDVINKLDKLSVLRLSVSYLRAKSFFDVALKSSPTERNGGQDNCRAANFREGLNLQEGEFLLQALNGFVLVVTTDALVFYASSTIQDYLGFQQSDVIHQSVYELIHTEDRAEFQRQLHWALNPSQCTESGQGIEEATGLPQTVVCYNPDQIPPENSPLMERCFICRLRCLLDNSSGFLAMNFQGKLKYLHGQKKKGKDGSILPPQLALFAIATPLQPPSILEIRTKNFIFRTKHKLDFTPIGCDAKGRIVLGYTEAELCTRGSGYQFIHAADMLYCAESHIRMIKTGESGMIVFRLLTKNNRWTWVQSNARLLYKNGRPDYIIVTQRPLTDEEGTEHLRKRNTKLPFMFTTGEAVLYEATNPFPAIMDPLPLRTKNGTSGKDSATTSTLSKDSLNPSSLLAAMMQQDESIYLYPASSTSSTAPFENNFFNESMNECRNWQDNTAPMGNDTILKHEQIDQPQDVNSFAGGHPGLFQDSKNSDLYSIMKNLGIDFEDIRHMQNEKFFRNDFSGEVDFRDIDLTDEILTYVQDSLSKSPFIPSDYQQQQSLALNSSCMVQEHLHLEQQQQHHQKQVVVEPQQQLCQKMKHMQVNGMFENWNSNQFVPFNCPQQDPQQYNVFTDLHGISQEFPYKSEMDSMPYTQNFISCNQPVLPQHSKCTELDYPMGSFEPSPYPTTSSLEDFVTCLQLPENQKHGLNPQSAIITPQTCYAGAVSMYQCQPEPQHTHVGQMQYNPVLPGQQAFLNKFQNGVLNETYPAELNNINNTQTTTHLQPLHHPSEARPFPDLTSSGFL
Test: AHR activators, confirmation, cell-based, luminescence, luciferase reporter, human (AID 2845);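 further: HepG2 hepatoma cells carrying a DRE-driven firefly luciferase reporter; 0% = vehicle wells and 100% = reference agonist wells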
Conditions: human cells, AHR-responsive luciferase reporter, at 9 µM
Screen size: about 2,300 compounds; about 2,000 (87%) were called active. No stated cut-off is given here; in the data, active means activation above about 49%; inactive means the rest. So high a share suggests a set chosen from earlier hits. Not all results are given here.
Possible outcomes: t (active), f (inactive)

>>> group_label("C=CCOc1c(Br)cc(/C=N\\n2nnnc2N)cc1OC")
"t"
>>> group_label("C(=N\\Nc1ccc2ccccc2n1)/c1ccc2c(c1)OCO2")
"f"
>>> group_label("CCOC(=O)N1CCN(C(=O)c2cc3c(-c4ccc(Cl)cc4)nn(C)c3s2)CC1")
"t"
>>> group_label("COc1cc(NC(=O)c2ccc(-c3csc(C)n3)cc2)c(OC)cc1Cl")
"t"
>>> group_label("Cc1cccc(NC(=O)c2ccc3ccccc3n2)n1")
"t"
>>> group_label("C/C(=N\\NC(=O)c1cccnc1)c1ccc(-n2ccnc2)cc1")
"t"
>>> group_label("Cc1nn2c3cc(N4CCOCC4)ccc3nc2c2ccccc12")
"t"
>>> group_label("C/C(=N\\NC(=O)CNc1cccc2ccccc12)c1ccc(Br)s1")
"t"
>>> group_label("Cn1c(C(=O)NCCc2ccsc2)cc2c(=O)n(C)c3ccccc3c21")
"t"
>>> group_label("CCn1ccnc1CN(C)Cc1nc(-c2ccc3c(c2)OCO3)no1")
"t"
>>> group_label("O=C(Cn1cncn1)N/N=C/c1c2ccccc2cc2ccccc12")
"t"
